These entries and their values trace back to ChEMBL document CHEMBL1127024.

target: GABA-A receptor; anion channel
procedure details: Binding affinity for Diazepam insensitive (DI) isoform of the benzodiazepine (Bz) binding site on GABAA receptors
Type: protein-complex assay
pKi: −log10 of the molar value.
assay readout: pKi

{"compound": "CC(C)(C)OC(=O)c1ncn2c1C1CCCN1C(=O)c1c(Br)cccc1-2 (stereo not drawn)", "value comparator": "=", "observed value": 8.00}
{"compound": "CCOC(=O)c1ncn2c1C1CCN1C(=O)c1c(Cl)cccc1-2 (stereo not drawn)", "value comparator": "=", "observed value": 7.47}
{"compound": "CCc1cccc2c1C(=O)N1CCCC1c1c(C(=O)OC(C)(C)C)ncn1-2 (stereo not drawn)", "value comparator": "=", "observed value": 6.79}
{"compound": "Cc1noc(-c2ncn3c2CN(Cc2ccccc2)C(=O)c2ccccc2-3)n1", "value comparator": "<", "observed value": 5.00}
{"compound": "CCOC(=O)c1ncn2c1C1CCCN1C(=O)c1c(Cl)cccc1-2 (stereo not drawn)", "value comparator": "=", "observed value": 7.16}
{"compound": "Cc1nnc2n1-c1ccc(Cl)cc1C(c1ccccc1Cl)=NC2", "value comparator": "=", "observed value": 5.68}
{"compound": "CCOC(=O)c1ncn2c1[C@H]1CCCN1C(=O)c1ccccc1-2", "value comparator": "<", "observed value": 6.00}
{"compound": "CC(C)(C)OC(=O)c1ncn2c1C1CCCN1C(=O)c1c-2ccc(F)c1Cl (stereo not drawn)", "value comparator": "=", "observed value": 7.63}
{"compound": "CC(C)(C)OC(=O)c1ncn2c1C1CCCN1C(=O)c1cc(Cl)ccc1-2 (stereo not drawn)", "value comparator": "=", "observed value": 7.57}
{"compound": "O=C(OC1CCCCC1)c1ncn2c1C1CCCN1C(=O)c1cc(Cl)ccc1-2 (stereo not drawn)", "value comparator": "=", "observed value": 6.78}
{"compound": "CC(C)(C)OC(=O)c1ncn2c1C1CCN1C(=O)c1cc(F)ccc1-2 (stereo not drawn)", "value comparator": "=", "observed value": 7.77}
{"compound": "Cc1noc(-c2ncn3c2CN(Cc2ccccc2)C(=O)c2cc(Cl)ccc2-3)n1", "value comparator": "=", "observed value": 6.94}
{"compound": "C=CCN1Cc2c(C(=O)OCC)ncn2-c2ccccc2C1=O", "value comparator": "=", "observed value": 5.95}
{"compound": "CCOC(=O)c1ncn2c1CN(C)C(=O)c1c(F)cccc1-2", "value comparator": "=", "observed value": 6.99}
{"compound": "CCOC(=O)c1ncn2c1CN(Cc1ccccc1)C(=O)c1ccccc1-2", "value comparator": "=", "observed value": 6.95}
{"compound": "CCOC(=O)c1ncn2c1CN(C)C(=O)c1cccc(Cl)c1-2", "value comparator": "<", "observed value": 5.00}
{"compound": "Cc1nnc(-c2ncn3c2CN(Cc2ccccc2)C(=O)c2ccccc2-3)o1", "value comparator": "<", "observed value": 5.00}
{"compound": "CCOC(=O)c1ncn2c1CN(C)C(=O)c1c(Cl)cccc1-2", "value comparator": "=", "observed value": 7.70}
{"compound": "O=C(OCC1CC1)c1ncn2c1C1CCCN1C(=O)c1cc(Cl)ccc1-2 (stereo not drawn)", "value comparator": "=", "observed value": 7.09}
{"compound": "CCOC(=O)c1ncn2c1CN(C)C(=O)c1ccc(Cl)cc1-2", "value comparator": "<", "observed value": 5.00}
{"compound": "COC(=O)c1ncn2c1CN(C)C(=O)c1ccccc1-2", "value comparator": "=", "observed value": 5.85}
{"compound": "CN1Cc2c(C(=O)OCCC(C)(C)C)ncn2-c2ccc(Cl)cc2C1=O", "value comparator": "<", "observed value": 6.00}
{"compound": "COc1cccc2c1C(=O)N1CCCC1c1c(C(=O)OC(C)(C)C)ncn1-2 (stereo not drawn)", "value comparator": "=", "observed value": 6.59}
